// values below are reported melting point
observed property: melting point

chemical smiles: O=C(CC(=O)C(F)F)c1ccc(N2CCOCC2)cc1
assay value: 102 to 103 °C
//
chemical smiles: O=C(CNc1ccc(F)c(F)c1)Nc1c(Cl)ccc2nc(N3CC[C@@H](O)C3)ccc12
assay value: 238 to 240 °C
//
chemical smiles: COc1cc(-c2ccccc2C)ccc1C(=O)N1Cc2ccc(C(=O)O)n2Cc2ccccc21
assay value: 144 to 146 °C
//
chemical smiles: CCc1ccc2c(O)c(C(=O)O)cnc2c1
assay value: 175 to 178 °C
//
chemical smiles: OCC1(c2ccccc2)CCN(CCC(c2ccccc2)(c2ccccc2)c2ccccn2)CC1
assay value: 148 to 151 °C
